Listed next: entries and their corresponding Ki.
Molecular target: mouse TAAR1 (Mus musculus (Mouse), UniProt Q923Y8)
Sequence (Q923Y8 whole entry): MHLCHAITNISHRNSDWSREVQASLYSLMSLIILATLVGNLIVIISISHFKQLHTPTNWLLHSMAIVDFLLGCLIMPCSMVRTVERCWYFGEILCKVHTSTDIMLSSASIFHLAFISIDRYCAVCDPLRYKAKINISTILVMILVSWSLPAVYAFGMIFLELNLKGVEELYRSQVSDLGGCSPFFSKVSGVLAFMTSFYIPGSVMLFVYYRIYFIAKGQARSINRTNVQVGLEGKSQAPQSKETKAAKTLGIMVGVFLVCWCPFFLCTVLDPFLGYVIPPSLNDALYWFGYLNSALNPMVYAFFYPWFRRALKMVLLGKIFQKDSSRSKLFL
Assay: Radioligand binding assay on mouse TAAR1
Conditions: mouse TAAR1 (first value of the cell), HEK-293 membranes; read-out: Ki (μM) mouse/rat
Description: Construction of TAAR Expression Plasmids and Stably Transfected Cell Lines For the construction of expression plasmids the coding sequences of human, rat and mouse TAAR 1 were amplified from genomic DNA essentially as described by Lindemann et al.. The Expand High Fidelity PCR System (Roche Diagnostics) was used with 1.5 mM Mg^2+ and purified PCR products were cloned into pCR2.1-TOPO cloning vector (Invitrogen) following the instructions of the manufacturer. […]

>  <Compound>
Clc1ccc(Nc2ccc(C3CNCCO3)cc2)cc1 (racemic)

>  <Ki>
0.0005 µM

$$$$
>  <Compound>
COc1cccc(CNc2ccc([C@H]3CNCCO3)cc2)n1

>  <Ki>
0.276 µM

$$$$
>  <Compound>
COc1ccnc(Nc2ccc([C@H]3CNCCO3)cc2)c1

>  <Ki>
0.004 µM

$$$$
>  <Compound>
COc1ccc(-c2cnc(Nc3ccc([C@@H]4CNCCO4)cc3)nc2)cc1OC

>  <Ki>
0.0027 µM

$$$$
>  <Compound>
Cc1ccc(CNc2ccc([C@H]3CNCCO3)cc2)cc1

>  <Ki>
0.0375 µM

$$$$
>  <Compound>
Cc1cc(C2CNCCO2)ccc1Nc1ccc(Cl)cn1 (racemic)

>  <Ki>
0.0026 µM

$$$$
>  <Compound>
Clc1cnc(Nc2ccc([C@@H]3CNCCO3)cc2)nc1

>  <Ki>
0.0044 µM

$$$$

---

Molecular target: mouse TAAR1 (Mus musculus (Mouse))
Test: Radioligand binding assay on mouse TAAR1
Details: mouse TAAR1 (first value of the cell), HEK-293 membranes; read-out: Ki (μM) mouse/rat
Listed next: entries and their corresponding Ki.

>  <Molecule>
CCCc1cnc(Nc2ccc([C@@H]3CNCCO3)cc2)nc1 [Example 93]

>  <Ki [µM]>
0.005

$$$$
>  <Molecule>
Fc1cc(Nc2ncc(C(F)(F)F)cn2)ccc1[C@@H]1CNCCO1 [Example 196]

>  <Ki [µM]>
0.0049

$$$$
>  <Molecule>
Fc1cc(Cl)ccc1Nc1ccc([C@H]2CNCCO2)cc1 [Example 59]

>  <Ki [µM]>
0.0049

$$$$

---

Listed next: entries and their corresponding Ki.
Target: mouse TAAR1 (Mus musculus (Mouse), UniProt Q923Y8)
Assay: Radioligand binding assay on mouse TAAR1
Settings: mouse TAAR1 (first value of the cell), HEK-293 membranes; read-out: Ki (μM) mouse/rat
Quantity kind: Ki

>  <Compound>
CCOc1cnc(Nc2ccc([C@H]3CNCCO3)cc2F)nc1

>  <Quantity kind>
Ki

>  <Result>
0.0052 µM

$$$$
>  <Compound>
Fc1ncccc1Nc1ccc([C@H]2CNCCO2)cc1

>  <Quantity kind>
Ki

>  <Result>
0.738 µM

$$$$
>  <Compound>
Clc1cnc(Nc2ccc(C3CNCCO3)cc2)nc1 (racemic)

>  <Quantity kind>
Ki

>  <Result>
0.0133 µM

$$$$
>  <Compound>
FC(F)(F)c1cnc(Nc2ccc([C@H]3CNCCO3)cc2)nc1

>  <Quantity kind>
Ki

>  <Result>
0.0056 µM

$$$$
>  <Compound>
FC(F)(F)COc1ccnc(Nc2ccc([C@H]3CNCCO3)cc2)n1

>  <Quantity kind>
Ki

>  <Result>
0.0021 µM

$$$$
>  <Compound>
c1cc([C@H]2CNCCO2)ccc1Nc1ncc(OCC2CC2)cn1

>  <Quantity kind>
Ki

>  <Result>
0.0036 µM

$$$$
>  <Compound>
FC(F)(F)COc1cnc(Nc2ccc([C@H]3CNCCO3)cc2)nc1

>  <Quantity kind>
Ki

>  <Result>
0.0051 µM

$$$$
>  <Compound>
Cc1nc(Nc2ccc([C@H]3CNCCO3)cc2)ncc1C(C)C

>  <Quantity kind>
Ki

>  <Result>
0.0096 µM

$$$$
>  <Compound>
CCOc1cnc(Nc2ccc([C@H]3CNCCO3)cc2)nc1

>  <Quantity kind>
Ki

>  <Result>
0.0042 µM

$$$$
>  <Compound>
CCCc1cnc(Nc2ccc([C@H]3CNCCO3)cc2)nc1

>  <Quantity kind>
Ki

>  <Result>
0.002 µM

$$$$
>  <Compound>
c1ccc(-n2ccc(Nc3ccc([C@H]4CNCCO4)cc3)n2)cc1

>  <Quantity kind>
Ki

>  <Result>
0.0026 µM

$$$$
>  <Compound>
Cc1cc(C2CNCCO2)ccc1Nc1ccc(Cl)cc1 (racemic)

>  <Quantity kind>
Ki

>  <Result>
0.0047 µM

$$$$
>  <Compound>
c1cc(C2CC2)nc(Nc2ccc([C@@H]3CNCCO3)cc2)n1

>  <Quantity kind>
Ki

>  <Result>
0.109 µM

$$$$
>  <Compound>
Clc1ccc(Nc2ccc(C3CNCCO3)cc2)nc1 (racemic)

>  <Quantity kind>
Ki

>  <Result>
0.0011 µM

$$$$
>  <Compound>
Cc1cnc(Nc2ccc([C@H]3CNCCO3)cc2)cn1

>  <Quantity kind>
Ki

>  <Result>
0.0093 µM

$$$$
>  <Compound>
c1ccc2nc(Nc3ccc([C@H]4CNCCO4)cc3)ccc2c1

>  <Quantity kind>
Ki

>  <Result>
0.0008 µM

$$$$
>  <Compound>
FC(F)(F)c1cnc(Nc2ccc([C@@H]3CNCCO3)cc2)cn1

>  <Quantity kind>
Ki

>  <Result>
0.008 µM

$$$$
>  <Compound>
Clc1ccc(CNc2ccc([C@H]3CNCCO3)cc2)cc1Cl

>  <Quantity kind>
Ki

>  <Result>
0.0051 µM

$$$$
>  <Compound>
c1ccc(-c2nnc(Nc3ccc([C@H]4CNCCO4)cc3)o2)cc1

>  <Quantity kind>
Ki

>  <Result>
0.0079 µM

$$$$
>  <Compound>
CN(c1ccc(Cl)cc1)c1ccc([C@H]2CNCCO2)cc1

>  <Quantity kind>
Ki

>  <Result>
0.0222 µM

$$$$
>  <Compound>
FC(F)(F)c1cnc(Nc2ccc([C@@H]3CNCCO3)c(Cl)c2)nc1

>  <Quantity kind>
Ki

>  <Result>
0.0038 µM

$$$$
>  <Compound>
FC(F)(F)c1nccc(Nc2ccc([C@@H]3CNCCO3)cc2)n1

>  <Quantity kind>
Ki

>  <Result>
0.0089 µM

$$$$
>  <Compound>
FC(F)(F)COc1ccnc(Nc2ccc([C@@H]3CNCCO3)cc2)n1

>  <Quantity kind>
Ki

>  <Result>
0.0035 µM

$$$$
>  <Compound>
Brc1ccc(CNc2ccc([C@H]3CNCCO3)cc2)cc1

>  <Quantity kind>
Ki

>  <Result>
0.0061 µM

$$$$

---

Target: rat TAAR1 (Rattus norvegicus (Rat), UniProt Q923Y9)
Sequence (Q923Y9 whole entry): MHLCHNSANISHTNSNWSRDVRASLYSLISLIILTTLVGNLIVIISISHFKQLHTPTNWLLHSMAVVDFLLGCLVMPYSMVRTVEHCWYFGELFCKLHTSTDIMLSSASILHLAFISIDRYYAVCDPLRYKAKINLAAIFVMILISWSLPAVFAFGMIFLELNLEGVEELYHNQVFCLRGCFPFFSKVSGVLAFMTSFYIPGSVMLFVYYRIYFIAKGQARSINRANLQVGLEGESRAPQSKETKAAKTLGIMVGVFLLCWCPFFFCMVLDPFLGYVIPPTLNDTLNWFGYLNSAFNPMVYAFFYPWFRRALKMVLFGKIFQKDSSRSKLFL
Assay: Radioligand binding assay on rat TAAR1
Settings: rat TAAR1 (second value of the cell), HEK-293 membranes; read-out: Ki (μM) mouse/rat
Field: label. Allowed values: 1 (yes) (Ki < 0.1 µM) or 0 (no) (Ki >= 0.1 µM).

>  <Molecule>
Fc1cc(Cl)ccc1CNc1ccc([C@H]2CNCCO2)cc1

>  <Target of assay>
rat TAAR1 (Rattus norvegicus (Rat), UniProt Q923Y9)

>  <Label>
0 (no)

$$$$
>  <Molecule>
COCCOc1cnc(Nc2ccc([C@H]3CNCCO3)cc2F)nc1

>  <Target of assay>
rat TAAR1 (Rattus norvegicus (Rat), UniProt Q923Y9)

>  <Label>
0 (no)

$$$$
>  <Molecule>
Clc1cncc(Nc2ccc([C@@H]3CNCCO3)cc2)n1

>  <Target of assay>
rat TAAR1 (Rattus norvegicus (Rat), UniProt Q923Y9)

>  <Label>
1 (yes)

$$$$
>  <Molecule>
Cn1ccc(Nc2ccc(C3CNCCO3)cc2)n1 (racemic)

>  <Target of assay>
rat TAAR1 (Rattus norvegicus (Rat), UniProt Q923Y9)

>  <Label>
0 (no)

$$$$
>  <Molecule>
c1coc(-c2cnc(Nc3ccc([C@@H]4CNCCO4)cc3)nc2)c1

>  <Target of assay>
rat TAAR1 (Rattus norvegicus (Rat), UniProt Q923Y9)

>  <Label>
1 (yes)

$$$$
>  <Molecule>
FC(F)(F)c1cnc(Nc2ccc([C@@H]3CNCCO3)cc2)c(Cl)c1

>  <Target of assay>
rat TAAR1 (Rattus norvegicus (Rat), UniProt Q923Y9)

>  <Label>
1 (yes)

$$$$

Origin of measurements: patent US8802673B2
